assay: NCI Yeast Anticancer Drug Screen. Data for the mec2-1 strain (AID 157); settings: S. cerevisiae mec2-1 strain, at 50.0 µM, hits give high values
This is part of a sample that, as a whole, favours compounds with a hit. Of some 79,000 tested, about 15% had one in any assay. Activity calls are given as the source filed them. Rule as the data show it: active = growth inhibition above about 70%; inactive = the rest.
Property Name: growth inhibition

Solved entries:
1. CCOC(=O)Nc1cc(NC(C)/C(=N/O)c2ccccc2)c([N+](=O)[O-])c(N)n1 (stereo unspecified)    59.5% (inactive)
2. CNC(=O)N(C)/N=C/c1ccc([N+](=O)[O-])o1    50.5% (inactive)

Quick note, growth inhibition for `Oc1c(N(Cc2ccccc2)Cc2ccccc2)ccc2cccnc12` landed at 98.5% (active)

The value of growth inhibition measured for the compound `Oc1[nH]c2ccccc2c1N=NC(=S)N1CCCC1` turned out to be 58.6% (inactive)

So for `Nc1cc(S(=O)(=O)O)cc2cc(S(=O)(=O)O)c(N=Nc3ccccc3)c(O)c12` , the logged growth inhibition turned out to be 99.2% (active)

What the record says about `BrCc1ccc2ccc3ccc(CBr)nc3c2n1` : growth inhibition is 43.5% (inactive)

# growth inhibition (compound: `O=C(COC(=O)c1ccc(O)cc1)c1ccc(-c2ccccc2)cc1` ) is 25.4% (inactive)

Lookup result for O=C(NN1C(=O)C(Cl)C1c1ccc(O)cc1)c1ccccc1O (stereo unspecified) ; measured growth inhibition: 61% (inactive)
